Sourced from patent US20260242735A1

tested.system: human CD33 I262A (human, UniProt P20138 18-364)
Sequence (P20138 18-364 I262A limits assumed): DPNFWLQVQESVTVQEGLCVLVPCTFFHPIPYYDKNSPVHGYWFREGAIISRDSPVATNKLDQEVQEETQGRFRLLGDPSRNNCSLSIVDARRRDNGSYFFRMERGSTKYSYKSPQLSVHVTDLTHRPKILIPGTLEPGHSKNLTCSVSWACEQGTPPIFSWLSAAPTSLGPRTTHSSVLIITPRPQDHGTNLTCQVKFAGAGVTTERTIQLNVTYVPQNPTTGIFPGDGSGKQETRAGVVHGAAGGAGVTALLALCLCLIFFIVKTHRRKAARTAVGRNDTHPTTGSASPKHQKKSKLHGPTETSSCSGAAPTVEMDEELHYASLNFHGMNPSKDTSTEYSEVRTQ
assay.info: alanine scan, flow cytometry, HEK293-T;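 also: antibody binding to each alanine-substituted CD33 mutant expressed transiently in HEK293-T, read as fluorescence minus background, mean of duplicates, relative to wild-type CD33 set as 100%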
measured.parameter: Mean % WT Binding (% WT binding)
# value in % WT binding; strip the unit string

Use the examples below as a reference point.
binder	Mean % WT Binding, % WT binding
Refmab #3 (antibody, V domains shown, The alanine scan used IgG or Fab) VH: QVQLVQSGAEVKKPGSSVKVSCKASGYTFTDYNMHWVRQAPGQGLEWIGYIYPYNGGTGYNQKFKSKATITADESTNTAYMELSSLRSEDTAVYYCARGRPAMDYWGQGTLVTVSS VL: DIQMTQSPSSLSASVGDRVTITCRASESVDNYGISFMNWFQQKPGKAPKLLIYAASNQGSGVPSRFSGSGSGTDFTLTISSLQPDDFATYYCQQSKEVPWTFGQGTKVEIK	130
Refmab #1 (antibody, V domains shown, The alanine scan used IgG or Fab; also called hP67.6) VH: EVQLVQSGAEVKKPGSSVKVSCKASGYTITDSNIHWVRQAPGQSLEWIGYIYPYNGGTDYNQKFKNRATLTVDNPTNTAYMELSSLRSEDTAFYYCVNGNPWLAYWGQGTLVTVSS VL: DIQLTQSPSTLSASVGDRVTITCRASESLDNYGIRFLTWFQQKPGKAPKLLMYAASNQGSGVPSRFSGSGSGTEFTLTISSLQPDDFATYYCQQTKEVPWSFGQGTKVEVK	89.7
Refmab #4 (antibody, V domains shown, The alanine scan used IgG or Fab) VH: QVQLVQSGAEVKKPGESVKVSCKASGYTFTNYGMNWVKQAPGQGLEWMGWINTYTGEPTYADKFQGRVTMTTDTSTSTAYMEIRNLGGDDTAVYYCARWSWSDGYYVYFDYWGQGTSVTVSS VL: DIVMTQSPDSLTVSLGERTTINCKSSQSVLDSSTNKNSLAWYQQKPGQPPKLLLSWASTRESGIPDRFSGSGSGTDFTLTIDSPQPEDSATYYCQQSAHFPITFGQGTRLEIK	111

Next binder, Mean % WT Binding to be filled in.
Request: Dear colleague, I am looking for the recorded Mean % WT Binding of the following binder: Refmab #2 (antibody, V domains shown, The alanine scan used IgG or Fab) VH: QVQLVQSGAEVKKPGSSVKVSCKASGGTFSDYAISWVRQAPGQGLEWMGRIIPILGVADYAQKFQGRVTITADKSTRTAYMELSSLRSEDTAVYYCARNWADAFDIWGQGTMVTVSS VL: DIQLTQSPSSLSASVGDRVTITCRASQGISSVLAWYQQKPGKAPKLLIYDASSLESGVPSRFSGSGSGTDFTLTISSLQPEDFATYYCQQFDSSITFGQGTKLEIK
Result: 115
